The measured values listed here are drawn from patent US20240132622A1.

TARGET DESC: T1, recombinant human PAD4 (human, UniProt Q9UM07 1-663)
T1 construct: also called rhPAD4; hPAD4
T1 sequence (Q9UM07 whole entry): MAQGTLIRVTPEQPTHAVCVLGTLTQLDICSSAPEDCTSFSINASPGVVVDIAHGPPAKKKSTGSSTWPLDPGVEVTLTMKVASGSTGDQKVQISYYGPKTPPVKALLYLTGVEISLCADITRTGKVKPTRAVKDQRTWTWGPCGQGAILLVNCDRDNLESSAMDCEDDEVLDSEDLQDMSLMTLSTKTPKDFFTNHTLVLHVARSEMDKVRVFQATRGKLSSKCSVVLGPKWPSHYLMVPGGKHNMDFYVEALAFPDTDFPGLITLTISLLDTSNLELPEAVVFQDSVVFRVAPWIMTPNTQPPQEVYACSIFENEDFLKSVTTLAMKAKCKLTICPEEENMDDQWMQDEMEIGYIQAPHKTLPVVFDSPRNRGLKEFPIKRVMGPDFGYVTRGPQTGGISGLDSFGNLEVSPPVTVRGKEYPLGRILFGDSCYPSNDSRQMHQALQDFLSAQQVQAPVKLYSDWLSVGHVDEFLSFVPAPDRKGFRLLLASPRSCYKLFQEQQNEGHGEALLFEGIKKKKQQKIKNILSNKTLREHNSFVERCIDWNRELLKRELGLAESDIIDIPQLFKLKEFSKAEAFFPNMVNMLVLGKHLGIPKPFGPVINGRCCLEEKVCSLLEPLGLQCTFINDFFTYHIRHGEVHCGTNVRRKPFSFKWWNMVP
ASSAY COMMENT: SPR 37 C, captured antibody, PAD4 analyte, 2 mM EDTA
PROPERTY LABEL: koff (s⁻¹)
# number only, unit s⁻¹ dropped from output

binder hz13-8 (antibody, V domains shown, light constant region not tied to this antibody) VH: EVLLVQSGAEVKKPGASVKLSCTSSDFNIKDHFIHWVRQAPGKGLEWIGRIDPEDDETKYAPKFQDRVTITADTSTDTAYLELSSLRSEDTAVFYCAGYGNYEGAMDYWGQGTLVTVSS VL: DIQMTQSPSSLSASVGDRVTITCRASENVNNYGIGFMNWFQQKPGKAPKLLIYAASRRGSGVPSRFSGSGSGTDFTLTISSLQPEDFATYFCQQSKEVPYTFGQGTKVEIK , koff observed: 0.00016

Others:
koff reported for this binder hz20-5 (antibody, V domains shown, light constant region not tied to this antibody) VH: QVQLVQSGAEVKKPGASVKVSCKASGYTFTNYGISWVRQRPGQGLEWIGEIYPRSGNTYHNEKFKDRVTMTADTSTSTVYMELSSLRSEDTAVYYCARSMITTRYWYFDVWGKGTTVTVSS VL: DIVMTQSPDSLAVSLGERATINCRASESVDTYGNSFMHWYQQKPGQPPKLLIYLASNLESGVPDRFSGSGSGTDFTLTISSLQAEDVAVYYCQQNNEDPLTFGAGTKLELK : 0.0004
